Source of measurements: patent US20250282757A1

Measurement Notes: Pharmacokinetic study in monkeys
Assay type: in vivo, cynomolgus monkeys
Setup Conditions: cynomolgus monkey, plasma; male cynomolgus monkeys, 1 mg/kg iv; read-out: AUC0-inf
Readout Type: AUC(0-inf) (ng·h/mL)

INSERT INTO assay_data (molecule, unit_label, experimental_value) VALUES
  ('N#Cc1ccc(OCc2cccc(OC3CCN(Cc4nc5ccc(C(=O)O)cc5n4C[C@@H]4CCO4)CC3)n2)c(F)c1 [Compound 55]', 'ng·h/mL', 1420),
  ('O=C(O)c1ccc2nc(CN3CCC(Oc4cccc(COc5ccc(Cl)cc5F)n4)CC3)n(C[C@@H]3CCO3)c2c1 [Compound 49]', 'ng·h/mL', 2380);

====

Assayed System: GLP-1R (Homo sapiens, UniProt P43220)
Sequence (P43220 24-463): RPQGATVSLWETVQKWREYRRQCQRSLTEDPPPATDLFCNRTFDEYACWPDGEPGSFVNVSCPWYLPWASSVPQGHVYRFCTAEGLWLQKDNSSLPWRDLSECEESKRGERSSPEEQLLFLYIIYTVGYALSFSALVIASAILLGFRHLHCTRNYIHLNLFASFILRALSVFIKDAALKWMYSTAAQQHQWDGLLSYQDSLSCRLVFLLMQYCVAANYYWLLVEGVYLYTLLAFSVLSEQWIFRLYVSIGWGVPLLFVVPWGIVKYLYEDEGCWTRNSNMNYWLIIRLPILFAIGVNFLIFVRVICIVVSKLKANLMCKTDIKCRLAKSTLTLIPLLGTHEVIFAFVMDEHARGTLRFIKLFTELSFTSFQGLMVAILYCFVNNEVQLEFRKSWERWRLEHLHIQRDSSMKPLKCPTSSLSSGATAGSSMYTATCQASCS
Measurement Notes: Agonist activity on GLP-1R, HTRF cAMP detection in stably transfected GLP-1R/HEK293 cells
Setup Conditions: 30 min incubation
Readout Type: EC50

INSERT INTO measurements (smiles_str, readout_type, experimental_value) VALUES
  ('C#Cc1ccc(OCc2cccc(OC3CCN(Cc4nc5ccc(C(=O)O)cc5n4Cc4cncn4CC)CC3)n2)c(F)c1', 'EC50', '0.315 nM'),
  ('O=C(O)c1ccc2nc(CN3CCC(Oc4cccc(COc5ccc(Br)cc5F)n4)CC3)n(C[C@@H]3CCO3)c2c1', 'EC50', '0.56 nM'),
  ('N#CCC1(Cn2c(CN3CCC(Oc4cccc(COc5ccc(C#N)cc5F)n4)CC3)nc3ccc(C(=O)O)cc32)CC1', 'EC50', '0.264 nM'),
  ('CCn1cncc1Cn1c(CN2CCC(Sc3cccc(COc4ccc(C#N)cc4F)n3)CC2)nc2ccc(C(=O)O)cc21', 'EC50', '0.223 nM'),
  ('CCn1nccc1Cn1c(CN2CCC(Oc3cccc(COc4ccc(C#N)cc4F)n3)CC2)nc2ccc(C(=O)O)cc21', 'EC50', '7.93 nM'),
  ('Cc1ncc(Cn2c(CN3CCC(Oc4cccc(COc5ccc(C#N)cc5F)n4)CC3)nc3ccc(C(=O)O)cc32)n1C', 'EC50', '13.8 nM'),
  ('CCn1cncc1Cn1c(CN2CCC(Oc3ccc(F)c(OCc4ccc(Cl)cc4F)n3)CC2)nc2ccc(C(=O)O)cc21', 'EC50', '1.48 nM');

====

In this section, each of the compounds is paired with its reported pEC50.
Assayed System: GLP-1R (Homo sapiens, UniProt P43220)
Measurement Notes: Agonist activity on GLP-1R, HTRF cAMP detection in stably transfected GLP-1R/HEK293 cells
Setup Conditions: 30 min incubation
pEC50: −log10 of the molar value.
Readout Type: pEC50

INSERT INTO measurements (smiles_str, value_relation_sign, experimental_value) VALUES
  ('N#Cc1ccc(OCc2cccc(OC3CCN(Cc4nc5ccc(C(=O)O)cc5n4C[C@@H]4CCO4)CC3)n2)c(F)c1', '=', 9.83),
  ('Cc1cc(C(=O)O)cc2c1nc(CN1CCC(Oc3cccc(COc4ccc(C#N)cc4F)c3)CC1)n2C[C@@H]1CCO1', '=', 8.41),
  ('CCn1cncc1Cn1c(CN2CCN(Cc3cccc(COc4ccc(C#N)cc4F)n3)CC2)nc2ccc(C(=O)O)cc21', '<', 7.00),
  ('CC(C)n1cncc1Cn1c(CN2CCC(Oc3cccc(COc4ccc(C#N)cc4F)n3)CC2)nc2ccc(C(=O)O)cc21', '=', 9.08);
